Property: IC50; scope: individual compounds
# experimental.target: CLK4 (Cdc-like kinase 4; Cdc2-like kinase 4) (Homo sapiens)
# Sequence (Q9HAZ1 whole entry): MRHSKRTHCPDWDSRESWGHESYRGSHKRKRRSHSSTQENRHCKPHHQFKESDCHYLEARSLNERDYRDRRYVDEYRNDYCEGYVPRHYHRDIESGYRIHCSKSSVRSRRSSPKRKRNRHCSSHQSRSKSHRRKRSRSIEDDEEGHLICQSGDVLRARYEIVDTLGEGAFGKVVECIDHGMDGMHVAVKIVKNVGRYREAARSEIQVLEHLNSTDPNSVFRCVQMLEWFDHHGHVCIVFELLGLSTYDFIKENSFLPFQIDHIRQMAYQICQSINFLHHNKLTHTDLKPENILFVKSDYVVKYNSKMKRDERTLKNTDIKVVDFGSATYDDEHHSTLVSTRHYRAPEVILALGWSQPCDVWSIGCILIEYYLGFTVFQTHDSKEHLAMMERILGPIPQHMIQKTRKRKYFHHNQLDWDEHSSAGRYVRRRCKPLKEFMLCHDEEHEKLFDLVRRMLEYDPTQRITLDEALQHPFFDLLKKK
# test.summary: LanthaScreen Eu kinase binding assay (FRET)
attribute.measured: IC50 (nM)

>>> assay_value("Cc1c2cnccc2c(C)c2c1c1ccccc1n2Cc1ccccc1")
121
>>> assay_value("COc1ccc2[nH]c3c(C)c4ccncc4c(C)c3c2c1")
98.8
>>> assay_value("Cc1c2cnccc2c(C)c2c1c1ccccc1n2CC1CO1 (stereo not drawn)")
38.2
>>> assay_value("Cc1c2cnccc2c(C)c2c1c1ccccc1n2CCN(C)C")
21.4
>>> assay_value("Cc1c2cnccc2c(C)c2c1c1ccccc1n2CCNCc1ccccc1")
34.8
>>> assay_value("COc1ccc2c(c1)c1c(C)c3cnccc3c(C)c1n2CC1CO1 (stereo not drawn)")
101
